Source: patent US20240182536A1

- tested_target: T1, interleukin 18 binding protein (IL-18BP) (UniProt O95998 31-194)
- T1 sequence (looked up): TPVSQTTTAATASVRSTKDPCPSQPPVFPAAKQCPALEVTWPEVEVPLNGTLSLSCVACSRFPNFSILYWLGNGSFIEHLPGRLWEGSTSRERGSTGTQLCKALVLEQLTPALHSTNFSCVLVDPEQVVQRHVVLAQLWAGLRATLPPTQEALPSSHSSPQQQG
- assay_name: cell-based or functional assay

binder	Ratio (-BP/+BP), DF-10000
IL-18 variant L15I, K53H, S55M (ligand) YFGKLESKLSVIRNINDQVLFIDQGNRPLFEDMTDSDMRDNAPRTIFIISMYHDMQPRGMAVTISVKSEKISTLSSENKIISFKEMNPPDNIKDTKSDIIFFQRSVPGHDNKMQFESSSYEGYFLASEKERDLFKLILKKEDELGDRSIMFTVQNED	0.9
IL-18 variant K53N, S55A, R104N, P107A, H109Y (ligand) YFGKLESKLSVIRNLNDQVLFIDQGNRPLFEDMTDSDMRDNAPRTIFIISMYNDAQPRGMAVTISVKSEKISTLSSENKIISFKEMNPPDNIKDTKSDIIFFQNSVAGYDNKMQFESSSYEGYFLASEKERDLFKLILKKEDELGDRSIMFTVQNED	1.64
IL-18 variant K53H, S55M, T63S (ligand) YFGKLESKLSVIRNLNDQVLFIDQGNRPLFEDMTDSDMRDNAPRTIFIISMYHDMQPRGMAVSISVKSEKISTLSSENKIISFKEMNPPDNIKDTKSDIIFFQRSVPGHDNKMQFESSSYEGYFLASEKERDLFKLILKKEDELGDRSIMFTVQNED	0.72
